The values you see were collected from ChEMBL document CHEMBL1144185.

# SYSTEM TESTED: Heat shock protein HSP90 (Homo sapiens, UniProt P07900+P08238)
# ASSAY NOTES: Inhibition of Hsp90 in human SKBR3 cells assessed as interaction with Cy3b-conjugated geldanamycin by FP assay
# Type: cell-based
# RUN PARAMETERS: sk-br-3
We begin with a simple list: items and their reported IC50.

{"columns": ["STRUCTURE", "UNIT INFO", "IC50"],
 "data": [
  ["COc1ccc(O)c(O)c1-c1cc(NS(=O)(=O)c2cc(Cl)ccc2Cl)ccc1N", "µM", 0.55],
  ["O=S(=O)(Nc1ccc(O)c(-c2ccccc2O)c1)c1cc(Cl)ccc1Cl", "µM", 19.4],
  ["O=[N+]([O-])c1cc(S(=O)(=O)Nc2ccc(F)c(-c3c(O)ccc4c3OCO4)c2)ccc1Cl", "µM", 26],
  ["Nc1ccc(NS(=O)(=O)c2ccc(O)cc2O)cc1-c1c(O)ccc2ccccc12", "µM", 9.5],
  ["N#Cc1ccccc1S(=O)(=O)Nc1ccc(O)c(-c2c(O)ccc3ccccc23)c1", "µM", 4.5],
  ["O=S(=O)(Nc1ccc(O)c(-c2c(O)ccc3c2OCO3)c1)c1cc(Cl)ccc1Cl", "µM", 1.7],
  ["COc1cc(O)ccc1S(=O)(=O)Nc1ccc(O)c(-c2c(O)ccc3ccccc23)c1", "µM", 1.3],
  ["O=S(=O)(Nc1ccc(O)c(-c2c(O)ccc3ccccc23)c1)c1ccccc1", "µM", 4.5],
  ["O=S(=O)(Nc1ccc(O)c(-c2c(O)ccc3ccccc23)c1)c1ccc(O)cc1O", "µM", 1.8],
  ["Cc1ccc(S(=O)(=O)Nc2cccc(-c3c(O)ccc4c3OCO4)c2)cc1", "µM", 31.3],
  ["Cc1ccc(S(=O)(=O)Nc2ccc(F)c(-c3c(O)ccc4c3OCO4)c2)cc1", "µM", 28],
  ["O=S(=O)(Nc1cccc(-c2c(O)ccc3c2OCO3)c1)c1cc(Cl)ccc1Cl", "µM", 14.5]
]}
